Below: a set of entries, each annotated with reported phosphorylation enrichment.
- target-desc: EPHB1 (UniProt P54762)
- Sequence (P54762 whole entry, looked up): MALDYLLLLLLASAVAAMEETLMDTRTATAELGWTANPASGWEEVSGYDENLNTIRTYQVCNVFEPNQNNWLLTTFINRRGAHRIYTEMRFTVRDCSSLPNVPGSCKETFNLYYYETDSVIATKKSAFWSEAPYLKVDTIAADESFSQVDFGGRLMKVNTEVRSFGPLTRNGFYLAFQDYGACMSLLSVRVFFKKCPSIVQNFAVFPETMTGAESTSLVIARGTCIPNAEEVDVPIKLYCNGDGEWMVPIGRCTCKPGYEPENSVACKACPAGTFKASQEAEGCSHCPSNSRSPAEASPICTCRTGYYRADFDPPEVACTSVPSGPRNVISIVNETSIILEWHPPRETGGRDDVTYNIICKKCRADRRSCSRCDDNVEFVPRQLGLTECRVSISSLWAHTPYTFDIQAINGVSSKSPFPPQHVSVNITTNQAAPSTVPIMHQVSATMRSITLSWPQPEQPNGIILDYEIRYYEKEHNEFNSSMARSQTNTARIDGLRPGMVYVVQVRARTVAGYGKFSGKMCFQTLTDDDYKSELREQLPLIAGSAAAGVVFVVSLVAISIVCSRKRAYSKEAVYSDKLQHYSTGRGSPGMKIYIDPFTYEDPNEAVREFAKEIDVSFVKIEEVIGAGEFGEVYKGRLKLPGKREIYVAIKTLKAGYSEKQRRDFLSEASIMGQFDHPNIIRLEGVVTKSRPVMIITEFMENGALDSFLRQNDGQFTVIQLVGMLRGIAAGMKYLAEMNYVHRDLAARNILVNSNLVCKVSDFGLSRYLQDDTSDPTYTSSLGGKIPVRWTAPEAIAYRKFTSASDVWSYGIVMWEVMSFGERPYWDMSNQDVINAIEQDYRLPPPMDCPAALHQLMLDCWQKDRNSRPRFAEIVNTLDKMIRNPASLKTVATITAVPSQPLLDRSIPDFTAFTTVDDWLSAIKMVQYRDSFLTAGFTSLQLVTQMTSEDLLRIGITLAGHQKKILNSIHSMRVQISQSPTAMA
- assay-notes: phosphorylation enrichment, bacterial display (enrichment ratio); higher = better substrate or ligand; peptides without Tyr show the background
Reply briefly: the number, and no unit.

Form: sequence = MDQAEYQAKIQ [DHX58_Y518_R523Q] ; phosphorylation enrichment = 0.563

phosphorylation enrichment for ALLVFYAATIA [SLC20A2_Y187_P184L] is 0.648

Note to self: phosphorylation enrichment recorded for VATRWYRSPEP [CDKL5_Y177_L182P] was 0.55

Kindly note the recorded phosphorylation enrichment for ARMTNYGLPRF [TSPAN12_Y138_YF] , which is 0.424

LNPDGYEKAYE [CPXM2_Y427] yielded phosphorylation enrichment of 0.696

Form: sequence = HNVAIYEGFAL [ACTC1_Y168_P166A_YF] ; phosphorylation enrichment = 11.1

Consider FDDIACIRKTL [PIK3CA_Y1021_Y1021C] . Its measured phosphorylation enrichment is 0.603

---

- System: c-Src
- assay-notes: phosphorylation enrichment, bacterial display (enrichment ratio); higher = better substrate or ligand; peptides without Tyr show the background
property-name: phosphorylation enrichment

Please review the entries below; each comes with its answer.
LNERHYGGLTD [PGAM2_Y92_G97D] | 0.515
FDNSVYQKTTE [LDLR_Y828_P826S] | 0.657

Input GINDDHGQLKN [NBN_Y679_Y679H] . Output phosphorylation enrichment: 0.382

---

Below, each entry is listed with its recorded phosphorylation enrichment.
- target-desc: Hck (UniProt P08631)
- Sequence (P08631 whole entry, looked up): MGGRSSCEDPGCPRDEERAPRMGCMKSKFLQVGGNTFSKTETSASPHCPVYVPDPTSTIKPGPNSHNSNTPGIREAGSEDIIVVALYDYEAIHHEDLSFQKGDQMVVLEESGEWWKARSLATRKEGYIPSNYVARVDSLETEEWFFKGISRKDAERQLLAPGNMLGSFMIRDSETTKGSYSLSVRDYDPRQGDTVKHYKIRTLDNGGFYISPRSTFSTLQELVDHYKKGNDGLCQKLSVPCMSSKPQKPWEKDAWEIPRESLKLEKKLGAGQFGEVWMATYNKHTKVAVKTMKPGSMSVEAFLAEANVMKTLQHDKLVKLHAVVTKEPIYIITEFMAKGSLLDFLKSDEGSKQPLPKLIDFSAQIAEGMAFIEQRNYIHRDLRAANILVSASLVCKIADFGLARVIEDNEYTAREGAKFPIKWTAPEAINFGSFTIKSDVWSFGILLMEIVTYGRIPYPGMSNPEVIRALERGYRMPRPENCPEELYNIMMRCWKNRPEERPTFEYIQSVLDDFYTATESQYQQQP
- assay-notes: phosphorylation enrichment, bacterial display (enrichment ratio); higher = better substrate or ligand; peptides without Tyr show the background

DLVHPYVHKIL [SF3B1_Y570_R568H] | 0.432

phosphorylation enrichment measured on LFDPDYMKVIL [CYP4A22_Y104_YF] = 0.759

The recorded phosphorylation enrichment for entry FDDDDYDTDFV [BLM_Y296] equals 0.538

Sample PLDNLYAEPAV [PRPS1_Y146_V142L] ; phosphorylation enrichment observed: 4.65

Looking up HAVFIYDICHV [TWNK_Y508_V507I_YF] , I found its phosphorylation enrichment recorded as 2.59

phosphorylation enrichment measured on SVVVPYEPPGV [TP53_Y220_E224G] = 0.471

Entry under test: HGEAVYSRDCV [XPC_Y676_R671H] . Its phosphorylation enrichment was 2.75

---

- target-desc: Grb2 SH2 (UniProt P62993)
- Sequence (P62993 whole entry, looked up): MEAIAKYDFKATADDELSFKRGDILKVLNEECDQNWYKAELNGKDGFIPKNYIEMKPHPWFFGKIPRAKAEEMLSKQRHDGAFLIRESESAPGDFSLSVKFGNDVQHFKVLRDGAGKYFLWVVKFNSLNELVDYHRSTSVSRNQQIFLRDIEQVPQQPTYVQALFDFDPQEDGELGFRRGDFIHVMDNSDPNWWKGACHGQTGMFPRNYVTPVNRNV
- assay-notes: SH2 binding enrichment of the phosphorylated peptide, bacterial display (enrichment ratio); higher = better substrate or ligand; peptides without Tyr show the background
property-name: SH2 binding enrichment
No unit in the answer, please; the number alone is enough.

// worked examples, SH2 binding enrichment included
VTPVMYTFDEF [COL10A1_Y623_G618V_YF] | 0.93
RPSRQYATLDV [SCAMP3_Y35] | 0.899
APGNAYGDAGF [SYP_Y250_D248N_YF] | 0.883
SHSMRYFSTAV [HLA-C_Y31_D33S] | 0.752
LRIAVYHEILI [CREBBP_Y1450_T1447I] | 1.1
EIRTQDEAMAS [GFAP_Y242_Y242D] | 0.811

RRFLFYFSFLL [PTEN_Y177_V175L_YF] tested on Grb2 SH2 (UniProt P62993) gave SH2 binding enrichment: 0.821

Fill in: Grb2 SH2 (UniProt P62993) SH2 binding enrichment for DFKIIYIAPMR [SNRNP200_Y540] = 1.46

Tested on Grb2 SH2 (UniProt P62993), the item QSSALYEDHYL [ASS1_Y83_R86H] showed SH2 binding enrichment equal to 0.881

Readout SH2 binding enrichment for QMIETYFDFRL [NSMF_Y506] , test system Grb2 SH2 (UniProt P62993), was 1.29

Field SH2 binding enrichment (system: Grb2 SH2 (UniProt P62993)) for entry EYITRYIDSLK [PSMA7_Y110_A112D] = 0.814

Observed SH2 binding enrichment, Grb2 SH2 (UniProt P62993), MARDIYRASFF [ALK_Y1278_YF] : 0.843

The sequence INMKEYCKKDF [NTN1_Y490_K489E_YF] , when measured on Grb2 SH2 (UniProt P62993), yielded SH2 binding enrichment of 1.01
